The entries below come with measured pIC50 values attached.
- System: 556581-035-R-J1-PDC complex spheroid growth;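 further: spheroids exposed to agents for 7 days before viability read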
- measurement description: Anticancer human tumor 556581-035-R-J1-PDC patient-derived ovarian carcinoma cell line growth inhibition [Asc]
- recorded conditions: curve of first compound; second compound 10 µM
// returns pIC50 (minus log10 of molar concentration), number only

compound: O=C(c1ccc(F)c(F)c1Nc1ccc(I)cc1F)N1CC(O)([C@@H]2CCCCN2)C1 + Cc1c(S(C)(=O)=O)c(-c2cc(F)cc(N3CCN(c4ccc(NS(=O)(=O)c5ccc(NC(CCN6CCC(C(=O)OCCCP(=O)(O)O)CC6)CSc6ccccc6)c(S(=O)(=O)C(F)(F)F)c5)cc4)CC3)c2)c(-c2ccc(Cl)cc2)n1C(C)C
pIC50: 8.31

Pending compound:
What value of pIC50 has been reported for the following compound? COc1c(OCCCN2CCOCC2)ccc2c3n(c(=NC(=O)c4cnc(N)nc4)nc12)CCN3 + Cc1c(S(C)(=O)=O)c(-c2cc(F)cc(N3CCN(c4ccc(NS(=O)(=O)c5ccc(NC(CCN6CCC(C(=O)OCCCP(=O)(O)O)CC6)CSc6ccccc6)c(S(=O)(=O)C(F)(F)F)c5)cc4)CC3)c2)c(-c2ccc(Cl)cc2)n1C(C)C
8.50

Source: PubChem BioAssay AID1963450
